# experiment-notes: inhibitors of CD8+ T cell-vesicle binding, pilot screen, LFA-1/ICAM-1 modulator project, MLPCN validation set, flow cytometry (AID 2523)
# study-conditions: 2C mouse CD8+ T cells, at 7 µM, stronger effect = lower value; measured here: CD8+/vesicle+ event percentage
Exam item: assign true to entries whose double positive events is below 60% and false to entries at or above 60%. Note that a value of exactly 60% receives false.

Study these solved cases before continuing.
{"compound": "COc1cc2ccc(=O)oc2c(O)c1OCC=C(C)C", "assigned-class": "false"}
{"compound": "CCCCOc1ccc(OCCCN2CCOCC2)cc1", "assigned-class": "true"}
{"compound": "COc1ccc2[nH]c(C)c(CN3CCC(C)CC3)c(=O)c2c1", "assigned-class": "true"}
{"compound": "CCc1ccc(/C=C2\\SC(=S)N(CCC(=O)N3CCN(C)CC3)C2=O)cc1", "assigned-class": "true"}

Consider the compound COc1ccc(-c2cc(=O)oc3c(C)c(O)c(CN(C)C)cc23)cc1 . Is its double positive events strictly less than 60%? false

Answer whether the compound COc1ccc(C2C(=O)c3ccccc3C2=O)cc1 has double positive events strictly less than 60% true

Does Cc1ccc2c(c1)c1c3n2CCCNC3CCC1 (stereo not drawn) have double positive events strictly under 60%? false
